Target: His6-JNK2 (Homo sapiens, UniProt P45984)
Construct: His6 (N)
Sequence (P45984 whole entry): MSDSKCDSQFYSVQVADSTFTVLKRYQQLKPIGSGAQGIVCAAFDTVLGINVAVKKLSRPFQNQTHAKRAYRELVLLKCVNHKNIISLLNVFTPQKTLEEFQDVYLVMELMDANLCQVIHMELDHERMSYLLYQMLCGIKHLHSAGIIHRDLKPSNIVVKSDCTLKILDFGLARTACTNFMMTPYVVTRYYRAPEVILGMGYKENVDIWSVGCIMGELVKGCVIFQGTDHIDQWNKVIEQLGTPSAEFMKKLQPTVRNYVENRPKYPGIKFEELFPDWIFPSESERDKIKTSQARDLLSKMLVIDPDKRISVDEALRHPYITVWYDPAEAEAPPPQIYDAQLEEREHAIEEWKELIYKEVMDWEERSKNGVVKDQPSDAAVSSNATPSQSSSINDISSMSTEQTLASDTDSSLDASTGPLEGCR
Assay: JNK2 Assay (c-Jun phosphorylation, 32P-ATP filter plate)
Format: biochemical
Settings: c-Jun phosphorylation reduced to 50% of control; GST-c-Jun(1-79), 11 μM ATP; read-out: IC50 value in the JNK2 Assay
pIC50: −log10 of the molar value.
attribute-measured: pIC50

{"columns": ["compound", "result"],
 "data": [
  ["CN(Cc1ccccc1)C(=O)c1ccc(Nc2nccc(-c3ccc(Cl)cc3)n2)cc1", "≥ 5.00"],
  ["O=C(c1ccc(Nc2nccc(-c3ccc(Cl)cc3)n2)cc1)N1CCC(NCCO)CC1", "≥ 6.00"],
  ["CCC(=O)N1CCN(C(=O)c2ccc(Nc3nccc(-c4ccc(Cl)cc4)n3)cc2)CC1", "≥ 6.00"],
  ["NC(=O)c1ccc(Nc2nccc(-c3ccc(Cl)cc3)n2)cc1", "≥ 5.00"],
  ["O=C(c1ccc(Nc2nccc(-c3ccc(Cl)cc3)n2)cc1)N1CCC(O)C1 (centres unmarked)", "≥ 5.00"]
]}
